Molecular target: Sulfonylurea receptor 2, Kir6.2 (Homo sapiens, UniProt O60706+Q14654)
Sequence (Q14654 whole entry): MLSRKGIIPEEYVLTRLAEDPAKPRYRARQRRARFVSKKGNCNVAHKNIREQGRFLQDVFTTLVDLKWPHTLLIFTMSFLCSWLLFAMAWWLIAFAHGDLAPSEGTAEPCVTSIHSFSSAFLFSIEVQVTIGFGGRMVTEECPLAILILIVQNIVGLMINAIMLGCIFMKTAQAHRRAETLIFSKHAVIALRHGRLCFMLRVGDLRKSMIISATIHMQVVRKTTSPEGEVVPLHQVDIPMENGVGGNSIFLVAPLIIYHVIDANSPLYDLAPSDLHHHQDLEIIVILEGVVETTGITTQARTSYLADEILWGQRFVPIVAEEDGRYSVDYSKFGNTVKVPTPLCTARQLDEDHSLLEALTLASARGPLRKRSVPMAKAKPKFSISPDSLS
Sequence (O60706 whole entry): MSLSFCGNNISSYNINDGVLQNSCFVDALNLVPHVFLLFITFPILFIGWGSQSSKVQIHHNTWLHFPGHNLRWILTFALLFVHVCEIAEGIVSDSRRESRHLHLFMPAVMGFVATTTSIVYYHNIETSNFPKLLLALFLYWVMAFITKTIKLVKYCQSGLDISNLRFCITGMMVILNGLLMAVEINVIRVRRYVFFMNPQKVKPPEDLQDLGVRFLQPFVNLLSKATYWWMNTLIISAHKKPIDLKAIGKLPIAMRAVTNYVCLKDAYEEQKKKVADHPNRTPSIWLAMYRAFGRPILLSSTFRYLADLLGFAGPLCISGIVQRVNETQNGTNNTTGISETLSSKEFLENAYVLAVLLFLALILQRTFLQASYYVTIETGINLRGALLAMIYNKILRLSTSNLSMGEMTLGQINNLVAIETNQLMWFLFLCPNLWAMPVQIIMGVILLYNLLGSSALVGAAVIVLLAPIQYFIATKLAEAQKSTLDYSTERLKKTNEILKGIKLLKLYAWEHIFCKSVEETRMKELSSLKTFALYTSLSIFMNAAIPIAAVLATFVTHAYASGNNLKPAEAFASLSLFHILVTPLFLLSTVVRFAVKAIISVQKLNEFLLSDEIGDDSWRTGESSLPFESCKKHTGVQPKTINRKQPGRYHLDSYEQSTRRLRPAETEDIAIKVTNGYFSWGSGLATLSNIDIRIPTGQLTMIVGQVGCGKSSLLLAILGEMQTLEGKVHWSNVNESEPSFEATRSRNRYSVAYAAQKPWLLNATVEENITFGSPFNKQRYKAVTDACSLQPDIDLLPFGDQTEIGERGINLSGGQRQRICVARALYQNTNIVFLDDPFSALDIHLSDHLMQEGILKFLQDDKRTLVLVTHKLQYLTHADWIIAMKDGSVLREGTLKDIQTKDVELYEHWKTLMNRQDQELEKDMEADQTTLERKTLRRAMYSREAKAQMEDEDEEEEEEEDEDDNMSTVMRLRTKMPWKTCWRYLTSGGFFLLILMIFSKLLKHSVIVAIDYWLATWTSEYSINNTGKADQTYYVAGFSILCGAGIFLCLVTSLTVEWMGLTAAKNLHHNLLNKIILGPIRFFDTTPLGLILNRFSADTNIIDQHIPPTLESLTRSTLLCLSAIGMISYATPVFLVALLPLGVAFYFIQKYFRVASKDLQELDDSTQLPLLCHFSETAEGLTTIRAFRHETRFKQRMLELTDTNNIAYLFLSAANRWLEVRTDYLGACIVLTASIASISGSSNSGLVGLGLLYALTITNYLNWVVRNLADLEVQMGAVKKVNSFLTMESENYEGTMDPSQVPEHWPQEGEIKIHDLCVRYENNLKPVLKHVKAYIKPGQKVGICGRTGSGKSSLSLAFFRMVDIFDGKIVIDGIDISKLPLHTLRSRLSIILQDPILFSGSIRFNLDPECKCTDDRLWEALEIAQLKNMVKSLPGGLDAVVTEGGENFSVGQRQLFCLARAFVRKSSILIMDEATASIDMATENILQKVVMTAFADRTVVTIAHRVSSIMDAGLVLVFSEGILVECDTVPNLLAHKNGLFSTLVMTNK
Assay: Ability to open human urinary bladder Kir6.2 channel containing SUR2B in Ltk cells by FLIPR assay
Format: functional, cell-based
MEASURED METRIC: EC50 (nM)

Here are 6 compounds together with their reported answers.
CC[C@@H]1OCC2=C(C1=O)[C@@H](c1ccc(F)c(Br)c1)C1=C(O)OCC1=N2 (stereo in doubt; 10a)    776
C[C@@H]1OCC2=C(C1=O)[C@@H](c1ccc(F)c(Br)c1)C1=C(O)OCC1=N2 (racemic)    501
CC[C@H]1OC(O)=C2C1=NC1=C(C(=O)CCC1)[C@H]2c1ccc(F)c(Br)c1 (relative stereo)    251
O=C1COCC2=C1[C@@H](c1ccc(F)c(Br)c1)C1=C(COC1=O)N2    63.1
CC[C@@H]1OC(O)=C2C1=NC1=C(C(=O)COC1)[C@H]2c1ccc(F)c(Br)c1 (stereo in doubt; 20b)    145
O=C1COCC2=C1C(c1ccc(F)c(Br)c1)C1=C(O)OCC1=N2 (stereo in doubt; 6)    45.7

[a] CC[C@H]1OC(O)=C2C1=NC1=C(C(=O)COC1)[C@H]2c1ccc(F)c(Br)c1 (racemic)
[b] CC[C@@H]1OC(O)=C2C1=NC1=C(C(=O)COC1(C)C)[C@H]2c1ccc(F)c(Br)c1 (relative stereo)
[c] C[C@@H]1OCC2=C(C1=O)[C@H](c1ccc(F)c(Br)c1)C1=C(O)OCC1=N2 (racemic)
[d] CC1(C)OCC2=NC3=C(C(=O)COC3)C(c3ccc(F)c(Br)c3)C2=C1O (stereo unspecified)
[e] C[C@@H]1OCC2=C(C1=O)[C@@H](c1ccc(F)c(Br)c1)C1=C(O)OCC1=N2 (stereo in doubt; 7a)
// smallest EC50 at index 0, largest at the end Lab note: final answer is the ordered label list.
d, a, e, c, b
(d: 17 nM, a: 95.5 nM, e: 174 nM, c: 457 nM, b: 1740 nM)

[I] CCC[C@H]1OC(O)=C2C1=NC1=C(C(=O)COC1)[C@H]2c1ccc(Br)c(Cl)c1 (stereo in doubt; 44b)
[II] CC[C@@H]1CC(O)=C2C1=NC1=C(C(=O)COC1)[C@H]2c1ccc(F)c(Br)c1 (relative stereo)
[III] CC[C@H]1OCC(O)=C2C1=NC1=C(C(=O)COC1)[C@H]2c1ccc(C)c(Br)c1 (racemic)
Rank by EC50 (largest to smallest). Lab note: final answer is the ordered label list.
III, I, II

Source listed as ChEMBL document CHEMBL1137338.
